For each record, write down the corresponding growth inhibition.
Assay: growth inhibition of ugtP-null S. aureus, primary screen, RN4220 ugtP deletion, OD600 (AID 1259309);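 further: plate controls were untreated wells for no effect and antibiotic for full effect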
Conditions: 16 h, active compounds read high
Out of some 330,000 compounds screened, about 1,800 (0.55%) were called active. The sample holds actives, similar compounds and a random draw of the others, so the mix is not that of the screen.
One number for each entry, in %.

stdin: Give me measured growth inhibition, please, for this molecule: Cc1cc(C(=O)NNC(=S)Nc2ccccc2C)cs1
stdout: -0.4

Dear colleague, could you please provide growth inhibition for the molecules listed below?
1. O=S(=O)([N-]c1nc2ccccc2nc1-[n+]1ccc(Cc2ccccc2)cc1)c1ccc(Br)s1
2. Cc1nnc(SCc2cc(=O)[nH]c(N3CCN(Cc4ccccc4)CC3)n2)s1
3. NC(=O)CC1NC(=O)C(CCC(=O)O)NC(=O)c2cc([N+](=O)[O-])cc(I)c2NCCCC(C(N)=O)NC1=O (centres undefined)

stdout:
1: 95.2; 2: 0.849; 3: 5.02

Dear colleague, could you please provide growth inhibition for the molecules listed below?
1. O=C(OCC(=O)c1c[nH]c2ccccc12)c1cccc(O)c1
2. C#CCNC(=O)C1=CC(c2csc3ccccc23)CC(OCCCCO)O1 (centres undefined)
3. Cc1ccc(CON=CCc2snc(Sc3ncc(C(F)(F)F)cc3Cl)c2C#N)cc1
4. Cc1nnc(SCC2=C(C(=O)O)N3C(=O)C(NC(=O)Cn4nc(C)c(Cl)c4C)C3SC2)s1 (centres undefined)
5. O=C(/C=C/c1ccc([N+](=O)[O-])o1)NNC(=O)c1ccc(F)cc1
6. O=S(=O)(NCc1ccccn1)c1ccc(Br)s1

stdout:
1: -15.2; 2: -11.2; 3: 28; 4: 97.9; 5: 98.7; 6: 5.99

Dear colleague, could you please provide growth inhibition for the molecules listed below?
1. O=C(OCc1ccc(-c2ccccc2)cc1)c1cccc(O)c1
2. Cc1cc(C)cc(C(=O)NC2C(=O)N3C(C(=O)O)=C(CSc4nnc(C)s4)CSC23)c1 (centres undefined)
3. CC(C)CNC(=S)NC(=O)c1ccc(Cl)cc1

stdout:
1. 100
2. 100
3. 91.1

Dear colleague, could you please provide growth inhibition for the molecules listed below?
1. O=C(O)CCC(=NNC(=O)c1cn(-c2ccccc2)nc1-c1ccccc1)C(=O)O
2. Cc1cc(C=NNC(=O)c2ccccn2)c(C)n1-c1cccc([N+](=O)[O-])c1
3. Cc1nc2cc(NC(=O)Nc3cccc(F)c3)ccc2n1C
4. Cc1ccc(-c2csc(-c3c[nH]c4ccccc34)n2)cc1
5. COc1ccc(S(=O)(=O)N2CCN(c3ncnc4c(-c5ccccc5)nsc34)CC2)cc1
6. Cc1nnc(SCC(=O)Nn2cnnc2)s1

stdout:
1. 0.633
2. 6.51
3. -1.04
4. 89.5
5. 5.08
6. -2.34
